TARGET_DESC: IKKε (Homo sapiens)
Sequence (Q14164 1-716): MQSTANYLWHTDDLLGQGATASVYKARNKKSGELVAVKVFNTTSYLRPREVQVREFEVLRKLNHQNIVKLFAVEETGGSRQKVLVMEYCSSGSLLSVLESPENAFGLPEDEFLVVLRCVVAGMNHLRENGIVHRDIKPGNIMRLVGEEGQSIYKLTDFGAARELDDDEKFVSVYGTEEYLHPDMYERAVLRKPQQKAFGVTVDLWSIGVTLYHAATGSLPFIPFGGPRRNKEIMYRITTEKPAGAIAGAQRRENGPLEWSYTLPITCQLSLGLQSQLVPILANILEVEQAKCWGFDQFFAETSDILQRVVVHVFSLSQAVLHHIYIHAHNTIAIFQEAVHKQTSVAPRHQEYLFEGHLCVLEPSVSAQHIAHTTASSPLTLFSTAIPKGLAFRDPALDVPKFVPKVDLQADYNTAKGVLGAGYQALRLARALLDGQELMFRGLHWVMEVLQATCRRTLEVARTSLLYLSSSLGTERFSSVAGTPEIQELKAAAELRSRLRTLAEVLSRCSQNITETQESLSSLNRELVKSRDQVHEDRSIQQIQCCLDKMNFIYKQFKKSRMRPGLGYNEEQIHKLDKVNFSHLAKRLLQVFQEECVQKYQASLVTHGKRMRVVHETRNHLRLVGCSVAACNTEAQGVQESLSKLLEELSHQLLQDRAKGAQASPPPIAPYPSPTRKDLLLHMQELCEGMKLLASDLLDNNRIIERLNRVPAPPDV
ASSAY_TEXT: IKKe Biochemical Assay
EXPERIMENTAL_SETUP: read-out: IKKε IC50
pIC50: −log10 of the molar value.
Overview of recorded pIC50 for various compounds
QUANTITY_MEASURED: pIC50

COMPOUND	QUANTITY_MEASURED	OBSERVED_RESULT
CN(C)C(=O)c1ccc(-c2cc3nccc(-c4ccc(OC5CCOCC5F)c(C#N)c4)c3o2)cc1 (stereo not shown) [Compound 129]	pIC50	> 7.00
N#Cc1cc(-c2ccnc3cc(-c4ccc(C(=O)NC5CNCCC5F)cc4)oc23)ccc1OC1CCOCC1 (racemic) [Compound 131]	pIC50	> 7.00
CN(C)C(=O)c1cc(-c2cc3nccc(-c4ccc(OC5CCOCC5)c(C#N)c4)c3o2)n(C)c1 [Compound 400]	pIC50	> 7.00
CC1CC(Oc2ccc(-c3ccnc4cc(-c5ccc(C(=O)O)cc5)oc34)cc2C#N)CC(C)O1 (stereo not shown) [Compound 189]	pIC50	5.30 to 6.00

###

TARGET_DESC: IKKε (Homo sapiens)
ASSAY_TEXT: IKKe Biochemical Assay
EXPERIMENTAL_SETUP: read-out: IKKε IC50
Where a name gives a salt, the structure may show the parent alone.
Recorded IC50 for the following compounds
QUANTITY_MEASURED: IC50

COMPOUND	QUANTITY_MEASURED	OBSERVED_RESULT
N#Cc1cc(-c2ccnc3cc(-c4ccc(C(=O)O)cc4)oc23)ccc1Oc1ccccc1F	IC50	100 to 1000 nM
CN(C)C(=O)c1ccc(-c2cc3nccc(-c4ccc(OC5CCOCC5)c(C#N)c4)c3o2)c(F)c1	IC50	< 100 nM
COc1cc(C(=O)N(C)C)ccc1-c1cc2nccc(-c3ccc(CN4CCOCC4)c(C#N)c3)c2o1	IC50	< 100 nM
COc1cc(C(=O)N(C)C)cnc1-c1cc2nccc(-c3ccc(OC4CCNC4)c(C#N)c3)c2o1 (stereo not drawn)	IC50	100 to 1000 nM
COc1cc(C(=O)NC2CN3CCC2CC3)ccc1-c1cc2nccc(-c3ccc(OC4CCOCC4)c(C#N)c3)c2o1 (stereo not drawn)	IC50	< 100 nM
COc1cc(C(=O)N2CC3CC(C2)O3)ccc1-c1cc2nccc(-c3ccc(OC4CCOCC4)c(C#N)c3)c2o1	IC50	< 100 nM
COc1cc(C(=O)N(C)CCO)cnc1-c1cc2nccc(-c3ccc(NC4CCOCC4)c(C#N)n3)c2o1	IC50	< 100 nM
COc1cc(C(=O)N(C)C)cnc1-c1cc2nccc(-c3ncc(OC4CCOCC4)c(C#N)n3)c2o1	IC50	100 to 1000 nM
COc1cc(C(=O)N2CC3CN(C)CC3C2)cnc1-c1cc2nccc(-c3ccc(N4CC[C@@H](F)C4)c(C#N)c3)c2o1 (stereo partly drawn)	IC50	< 100 nM
N#Cc1cc(-c2ccnc3cc(-c4ccc(N)cc4)oc23)ccc1OC1CCOCC1	IC50	< 100 nM
COc1nc(C(=O)N(C)C)ccc1-c1cc2nccc(-c3ccc(N4CC[C@H](F)C4)c(C#N)c3)c2o1	IC50	< 100 nM
COc1cc(C(=O)N2CC[C@@H](F)C2)ccc1-c1cc2nccc(-c3ccc(OC4CCOCC4)c(C#N)c3)c2o1	IC50	< 100 nM
CC1CC(Nc2ccc(-c3ccnc4cc(-c5ccc(C(=O)N(C)C)cc5)oc34)cc2C#N)CC(C)O1 (stereo not drawn) [Compound 215, hydrochloride]	IC50	100 to 1000 nM
COc1cc(C(=O)N(C)C)cnc1-c1cc2nccc(-c3ccc(OC4CCNCC4(F)F)c(C#N)c3)c2o1 (stereo not drawn)	IC50	< 100 nM
COc1cc(C(=O)NC2CC(O)C2)ccc1-c1cc2nccc(-c3ccc(OC4CCOCC4)c(C#N)c3)c2o1 (stereo not drawn)	IC50	< 100 nM
